Where these numbers come from: ChEMBL document CHEMBL1201862

Test system: MDA-MB-435
Assay: NCI tumour cell line growth inhibition, 48 h
The source made the active and inactive calls. Cut-off read from the data, not from the text of the source: active = GI50 up to about 1.1 µM and inactive = higher. Starred links: 1 amine or outer side, 2 acyl side, 3 side chain; linkers in the order of their positions; H or OH if unused. Positions of bridges follow the written chain, without caps; N, C: chain ends. Non-standard residues stand in square brackets, D forms with d. Residues, ends and D or L forms follow the SMILES beside them. Chains are numbered I, II in the order given. Actinocin(9to1) = Cc1c2oc3c(C)ccc(C(=O)[*:1])c3nc-2c(C(=O)[*:2])c(N)c1=O; NMeV = CN[CH](C(=O)O)C(C)C; Sar = CNCC(=O)O
Outcome codes: active, inactive

{"columns": ["Compound", "Assay system", "Category"],
 "data": [
  ["Cc1nc2ccccc2c(=O)n1/N=C/c1ccc(N(C)C)cc1", "MDA-MB-435", "inactive"],
  ["C[C@]12CC[C@@H]3c4ccc(OCC(=O)O)cc4CC[C@H]3[C@@H]1CCC2=O", "MDA-MB-435", "inactive"],
  ["COc1ccc2cc(C(=O)NCCCNC(=O)c3ccc4c(OC)c(OC)ccc4c3)ccc2c1OC", "MDA-MB-435", "inactive"],
  ["COc1cc(/C=C(\\C#N)c2nc3ccccc3o2)ccc1O", "MDA-MB-435", "inactive"],
  ["O=C1c2cccnc2-c2nccc3c2c1nc1ccccc13", "MDA-MB-435", "active"],
  ["Cc1c2oc3c(C)ccc(C(=O)NC4C(=O)NC(Cc5ccc(O)cc5)C(=O)N5CCCC5C(=O)N(C)CC(=O)N(C)C(C(C)C)C(=O)OC4C)c3nc-2c(C(=O)NC2C(=O)NC(Cc3ccc(O)cc3)C(=O)N3CCCC3C(=O)N(C)CC(=O)N(C)C(C(C)C)C(=O)OC2C)c(N)c1=O (stereo unspecified) (I: TYP[Sar][NMeV] / II: TYP[Sar][NMeV]; ester I:1-I:C, II:1-II:C; linker I:N-II:N via Actinocin(9to1); configuration not given here)", "MDA-MB-435", "inactive"],
  ["COC(=O)C(Cc1c[nH]c2ccccc12)NP(=O)(O)OCC1OC(n2cc(F)c(=O)[nH]c2=O)CC1O (stereo unspecified)", "MDA-MB-435", "inactive"],
  ["CCOc1ccc2nc3cc(/N=N/c4ccc(N)nc4N)ccc3c(N)c2c1", "MDA-MB-435", "inactive"],
  ["Cc1ccc(C2(C)CC/C(=N/N=C3/CCC(C)(c4ccc(C)c(C)c4)c4cc(C)c(C)cc43)c3cc(C)c(C)cc32)cc1C (stereo unspecified)", "MDA-MB-435", "inactive"],
  ["O=C(/C=C1\\Nc2ccc([N+](=O)[O-])cc2N=C1NC12CC3CC(CC(C3)C1)C2)c1ccccc1", "MDA-MB-435", "inactive"],
  ["Cc1cc2nc(C=C(C(F)(F)F)C(F)(F)F)sc2cc1C", "MDA-MB-435", "inactive"],
  ["CN(C)Cc1cc(C(=O)/C=C/c2ccc(Cl)cc2Cl)cc(CN(C)C)c1O", "MDA-MB-435", "inactive"],
  ["COc1ccc2ccccc2c1/C=C/C(=O)c1ccccc1", "MDA-MB-435", "inactive"],
  ["O=C1CC(Sc2nc3ccc(I)cc3c(=O)n2Cc2ccccc2)C(=O)NN1 (stereo unspecified)", "MDA-MB-435", "inactive"],
  ["COc1ccc(C(=O)/C=C/c2ccc(OCCSCCCCCCCCCCSCCOc3ccc(/C=C/C(=O)c4ccc(OC)c(OC)c4)cc3)cc2)cc1OC", "MDA-MB-435", "inactive"],
  ["CC(=O)O[C@H]1[C@@H](OC2CCCC2(c2ccccc2)c2ccccc2)O[N+]([O-])=C[C@@H]1c1ccccc1 (stereo partly specified)", "MDA-MB-435", "inactive"],
  ["Cn1c(=S)c2nc(SCCCc3ccccc3)[nH]c2n(C)c1=O", "MDA-MB-435", "inactive"],
  ["COc1cc(C)cc(C(=O)OCc2ccccc2)c1C1=C(Cl)C(=O)C(Cl)=CC1=O", "MDA-MB-435", "inactive"],
  ["OCc1cc2c([nH]c3ccccc32)c(C(O)CO)n1 (stereo unspecified)", "MDA-MB-435", "inactive"],
  ["O=[N+]([O-])C(=C(NCc1ccccc1)NCc1ccccc1)C(Cl)=C(Cl)Cl", "MDA-MB-435", "inactive"],
  ["Cc1cc(C)c2c(c1)CC1(Cc3ccc(C)c(C)c3C1=O)C2=O (stereo unspecified)", "MDA-MB-435", "inactive"]
]}
